FYI, the data here is from PubChem BioAssay (NCATS).

test: qHTS of pediatric cancer cell lines to identify multiple opportunities for drug repurposing: Confirmatory screen for RD cells (AID 1347124); conditions: RD rhabdomyosarcoma cell viability; series mostly up to 45.9 µM;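 note: cells exposed to compound for 48 h before viability readout; nearly all actives have a fitted effect of over 65% in size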
Results filed as inconclusive are left out. Active and inactive are the calls of the source. Calls come from the whole dose curve; as a rule, active = well fitted cell-killing curve with a large enough effect; inconclusive = small, poorly fitted or top-dose-only effect, or effect the other way; inactive = no such curve, though single readings can be large or run the other way.
Possible outcomes: active, inactive

{"columns": ["Compound", "Class Label"],
 "data": [
  ["O=C(O)C[C@H](O)C[C@H](O)C=Cc1c(C2CC2)nc2ccccc2c1-c1ccc(F)cc1", "active"],
  ["COc1cccc2c1C(=O)c1c(O)c3c(c(O)c1C2=O)C[C@@](O)(C(=O)CO)C[C@@H]3O[C@H]1C[C@H](N)[C@@H](O)[C@H](C)O1", "active"],
  ["COc1ccc2c(c1OC)C(=O)OC2[C@H]1c2c(cc3c(c2OC)OCO3)CCN1C (some centres not stated)", "inactive"],
  ["CC(=O)SCC(Cc1ccccc1)C(=O)NCC(=O)OCc1ccccc1 (configuration not stated)", "inactive"],
  ["CNC(=O)Nc1ccc(-c2nc(N3CC4CCC(C3)O4)c3cnn(C4CCC5(CC4)OCCO5)c3n2)cc1", "active"],
  ["C=CC(=O)Nc1ccc2ncnc(Nc3ccc(OCc4cccc(F)c4)c(Cl)c3)c2c1", "active"],
  ["C[C@@H](Oc1ccc2[nH]nc(C=Cc3cnn(CCO)c3)c2c1)c1c(Cl)cncc1Cl", "active"],
  ["NS(=O)(=O)OC[C@@H]1C[C@@H](n2ccc3c(N[C@H]4CCc5ccccc54)ncnc32)C[C@H]1O", "inactive"],
  ["CCS(=O)(=O)Nc1ccc2[nH]c(O)c(C(=Nc3ccc(CN4CCCCC4)cc3)c3ccccc3)c2c1", "active"],
  ["CC(C=CC(=O)NO)=C[C@@H](C)C(=O)c1ccc(N(C)C)cc1", "active"],
  ["Nc1ncn([C@@H]2O[C@H](CO)[C@@H](O)[C@@H]2O)c(=O)n1", "active"],
  ["COC1=C2C[C@@H](C)C[C@H](OC)[C@@H](O)[C@@H](C)C=C(C)[C@H](OC(N)=O)[C@@H](OC)C=CC=C(C)C(=O)NC(=CC1=O)C2=O", "active"]
]}
